Origin of values: PubChem BioAssay (NCI)

- Protocol Notes: NCI Yeast Anticancer Drug Screen. Data for the cln2 rad14 strain (AID 165);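 further: 0% = growth equal to vehicle treated cultures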
- Experimental Parameters: S. cerevisiae cln2 rad14 strain, at 50.0 µM (retest, dose inferred, filed as 5.0), hits give high values
This is part of a sample that, as a whole, favours compounds with a hit. Of some 79,000 tested, about 15% had one in any assay. Active and inactive are the calls of the source. No stated cut-off is given here; in the data, active means growth inhibition above about 70%; inactive means the rest.
Property Label: growth inhibition

>  <Molecule>
CN(C)c1ccc2cc3c(cc2c1)Oc1ccccc1N3.[Cl][Zn][Cl]

>  <growth inhibition>
94% (active)

$$$$
>  <Molecule>
O=C(c1ccccc1)C(O)C(Br)(CBr)c1ccccc1 (centres undefined)

>  <growth inhibition>
82% (active)

$$$$
>  <Molecule>
CCCCCCCCCCCC[N+]1(CCCCCCCCCCCC)CCCC(C)C1 (centres undefined)

>  <growth inhibition>
99% (active)

$$$$
>  <Molecule>
Cc1cc(C(=O)c2ccc(Cl)cc2)ccc1O

>  <growth inhibition>
-9% (inactive)

$$$$

Tell me the measured growth inhibition of COCc1c(C#N)c(Cl)nc(C)c1[N+](=O)[O-] , please.
94% (active)

----------
- Protocol Notes: NCI Yeast Anticancer Drug Screen. Data for the mlh1 rad18 strain (AID 175)
- Experimental Parameters: S. cerevisiae mlh1 rad18 strain growth inhibition; at 50.0 µM (retest, dose inferred, filed as 5.0); hits give high values
Compounds without any hit were thinned out: in the full panel of roughly 79,000, 15% have a hit.
Property Label: growth inhibition (%)
A number alone suffices; assume %.

>  <Molecule>
CCOC(=O)COc1cc(-c2ccccc2F)nc2cc3c(cc12)OCO3

>  <Observed Measurement>
26

$$$$
>  <Molecule>
CC1=CC(=O)C=CC1(C)C(Cl)(Cl)Cl (stereo not drawn)

>  <Observed Measurement>
-22

$$$$

Next molecule, please.
Tell me the measured growth inhibition of O=[N+]([O-])c1ccc(N2CCN(Cc3ccccc3)CC2)c2c1no[n+]2[O-] , please.
97

----------
Measured growth inhibition, listed per entry.
- Protocol Notes: NCI Yeast Anticancer Drug Screen. Data for the mec2-1 strain (AID 157)
- Experimental Parameters: S. cerevisiae mec2-1 strain, at 5.0 µM (retest, dose inferred, filed as 0.5), hits give high values
About 79,000 compounds went through this panel and 15% of them were active in at least one assay; those are over-represented in the sample as a whole.
A number alone suffices; assume %.

Tell me the measured growth inhibition of N#C/C(=N\O)C(N)=O , please.
-3

Tell me the measured growth inhibition of Oc1ccc(Cl)cc1Cc1cc(Cl)ccc1O , please.
-3

Tell me the measured growth inhibition of CN(C)c1ccc(C(=C2C=CC(=[N+](C)C)C=C2)c2ccc(N(C)C)cc2)cc1 , please.
99

Tell me the measured growth inhibition of O=[N+]([O-])c1ccc(C(Br)c2ccc([N+](=O)[O-])cc2)cc1 , please.
29

Tell me the measured growth inhibition of CC(=O)c1ccc2c(c1)CCc1ccccc1-2 , please.
-33

----------
- Protocol Notes: NCI Yeast Anticancer Drug Screen. Data for the mlh1 rad18 strain (AID 175)
- Experimental Parameters: S. cerevisiae mlh1 rad18 strain growth inhibition; at 50.0 µM (retest, dose inferred, filed as 5.0); hits give high values
- Protocol: Growth inhibition of yeast strains with defined genetic alterations is measured as a screen for potential anti-cancer activity. Selected strains with alterations in DNA damage repair or cell cycle control were exposed to compounds and growth inhibition was measured relative to vehicle treated controls. The strain used in this assay is mlh1 rad18
The panel holds about 79,000 compounds, 15% with a hit somewhere; the sample as a whole holds those more often. Calls of active or inactive are those of the source. Rule as the data show it: active = growth inhibition above about 70%; inactive = the rest.
Property Label: growth inhibition

Consider the reported growth inhibition for these compounds:
>  <Compound>
NC(CS/C(Cl)=C/Cl)C(=O)O (stereo unspecified)

>  <growth inhibition>
97% (active)

$$$$
>  <Compound>
CCN(CC)CC(O)CNc1ccc(NCC2CO2)c2c1C(=O)c1ccccc1C2=O (stereo unspecified)

>  <growth inhibition>
74% (active)

$$$$

Tell me the measured growth inhibition of COc1cc(N(CCC#N)CCC#N)ccc1/C(N=Nc1ccc(C(=O)O)cc1)=N/NC(=O)c1cc(Br)ccc1O , please.
21% (inactive)

Tell me the measured growth inhibition of Cn1c(-c2ccccc2)c(/C=C/C2=[N+](C)c3ccccc3C2(C)C)c2ccccc21 , please.
99% (active)

Tell me the measured growth inhibition of C(=N\Nc1ccc2ccccc2n1)/c1ccccn1 , please.
87% (active)

Tell me the measured growth inhibition of Cc1onc(-c2ccccc2)c1C(=O)N/N=C/c1cc(Cl)cc(Cl)c1O , please.
94% (active)

----------
Measured growth inhibition, listed per entry.
- Protocol Notes: NCI Yeast Anticancer Drug Screen. Data for the bub3 strain (AID 167)
- Experimental Parameters: S. cerevisiae bub3 mutant strain, at 5.0 µM (retest, dose inferred, filed as 0.5), hits give high values
Compounds without any hit were thinned out: in the full panel of roughly 79,000, 15% have a hit.
A number alone suffices; assume %.

Consider the reported growth inhibition for these molecules:
>  <Entry Smiles>
COc1cc(/C=C2\SC(=S)N(/C=C/c3nc4ccccc4[nH]c3=O)C2=O)cc(OC)c1OC

>  <growth inhibition, %>
-8

$$$$
>  <Entry Smiles>
COc1cc(NC(=O)C2=C(C)NC(C)=C(C(=O)Nc3cc(OC)c(Cl)cc3OC)C2c2cccc([N+](=O)[O-])c2)c(OC)cc1Cl

>  <growth inhibition, %>
27

$$$$
>  <Entry Smiles>
CCCN(CCC)C(=O)c1ccc(C)cc1

>  <growth inhibition, %>
3

$$$$

Tell me the measured growth inhibition of COc1cccc(NC(=O)c2c(SC)c(C#N)c(=O)n(N)c2N)c1 , please.
7

----------
- Protocol Notes: NCI Yeast Anticancer Drug Screen. Data for the bub3 strain (AID 167)
- Experimental Parameters: S. cerevisiae bub3 mutant strain, at 50.0 µM, hits give high values
Compounds without any hit were thinned out: in the full panel of roughly 79,000, 15% have a hit.
Measured growth inhibition, listed per entry.
A number alone suffices; assume %.

Consider the reported growth inhibition for these compounds:
>  <Compound>
COc1cccc(N=N/C(=N\NC(=O)c2cc(Br)ccc2O)c2ccc(N(CCC#N)CCC#N)cc2OC)c1

>  <Observed Measurement>
39.4

$$$$
>  <Compound>
OC(CSc1ccccc1)CN1CCN(c2ccc(Cl)cc2)CC1 (stereo not given)

>  <Observed Measurement>
80.8

$$$$
>  <Compound>
O=[N+]([O-])c1ccc(C(Br)c2ccc([N+](=O)[O-])cc2)cc1

>  <Observed Measurement>
99.7

$$$$
>  <Compound>
OCCOSCCO

>  <Observed Measurement>
-6.5

$$$$
>  <Compound>
Cc1cc(C(N)=O)cc(C)c1C(=O)OCCCl

>  <Observed Measurement>
51.9

$$$$
>  <Compound>
C/C(=N/NC(N)=S)c1ccc(C)cc1

>  <Observed Measurement>
45

$$$$
>  <Compound>
Cc1ccc(N2C(=O)C=CC2=O)cc1

>  <Observed Measurement>
98.9

$$$$
>  <Compound>
CCc1oc2ccccc2c1C(=O)c1cc(Br)c(O)c(Br)c1

>  <Observed Measurement>
99.3

$$$$

Tell me the measured growth inhibition of CC(C)N=C(N)/N=C(\N)Nc1ccc2ccc3ccccc3c2c1 , please.
46.3

Tell me the measured growth inhibition of COc1ccc2c(c1)c(CC(=O)O)c(C)n2C(=O)c1ccc(Cl)cc1 , please.
51.1

Tell me the measured growth inhibition of [Cl-].[Rh+3].c1ccc(-c2ccnc3c2ccc2c(-c4ccccc4)ccnc23)cc1.c1ccc(-c2ccnc3c2ccc2c(-c4ccccc4)ccnc23)cc1.c1ccc(-c2ccnc3c2ccc2c(-c4ccccc4)ccnc23)cc1 , please.
90.8

Tell me the measured growth inhibition of C=C1C(=O)OC2CC3(C)CCCC(C)C3=CC12 (stereo not given) , please.
78.8

Tell me the measured growth inhibition of c1ccc2sc(SSN3CC4CCC(CC4)C3)nc2c1 , please.
83.7

Tell me the measured growth inhibition of COC(=O)C(=[N+]=[N-])C(=O)c1ccc([N+](=O)[O-])o1 , please.
48.5

Tell me the measured growth inhibition of CCCCCCCCCCCC[n+]1ccc2ccccc2c1 , please.
99.5

----------
- Protocol Notes: NCI Yeast Anticancer Drug Screen. Data for the mlh1 rad18 strain (AID 175)
- Experimental Parameters: S. cerevisiae mlh1 rad18 strain growth inhibition; at 50.0 µM (retest, dose inferred, filed as 5.0); hits give high values
The panel holds about 79,000 compounds, 15% with a hit somewhere; the sample as a whole holds those more often.
Label condition met when growth inhibition is at or above 70%; anything below gets condition not met.

Example results:
>  <Molecule>
O=[N+]([O-])/C=C/c1cccs1

>  <Label Class>
condition met

$$$$
>  <Molecule>
N#Cc1ccc(Br)cc1[N+](=O)[O-]

>  <Label Class>
condition not met

$$$$
>  <Molecule>
Cc1nn(CCO)c(C)c1N=[N+]([O-])c1c(C)nn(CCO)c1C

>  <Label Class>
condition met

$$$$
>  <Molecule>
CC(C)(C)S(=O)(=O)O.[Ag]

>  <Label Class>
condition met

$$$$
>  <Molecule>
O=C(CBr)C(Br)C(Br)c1ccccc1 (stereo unspecified)

>  <Label Class>
condition met

$$$$
>  <Molecule>
CCC(C)(C)N(CC(=O)O)CC(=O)O

>  <Label Class>
condition not met

$$$$
>  <Molecule>
O=C1C=CC(=O)N1c1ccc(O)cc1

>  <Label Class>
condition met

$$$$
>  <Molecule>
CC(C)(C)CC(C)(C)c1ccc(OCCOCCSC(=N)N)cc1

>  <Label Class>
condition met

$$$$
>  <Molecule>
CC(/C=N/NC(N)=S)Cc1ccc(C(C)C)cc1 (stereo unspecified)

>  <Label Class>
condition met

$$$$
>  <Molecule>
O=C1C(=O)c2cccnc2-c2ncccc21

>  <Label Class>
condition met

$$$$

I'd appreciate it if you could say whether O=C(O)c1cccc2cccc(-c3c4ccc(=O)c(O)c-4oc4c(O)c(O)ccc34)c12 has growth inhibition at least equal to 70%.
condition met

I'd appreciate it if you could say whether On1c(-c2ccccc2)nc2ccccc2c1=S has growth inhibition at least equal to 70%.
condition not met

I'd appreciate it if you could say whether Cc1nc(Sc2nc3ccc([N+](=O)[O-])cc3s2)sc1C has growth inhibition at least equal to 70%.
condition met

I'd appreciate it if you could say whether Cc1cc(C(=O)c2ccc(Cl)cc2)ccc1O has growth inhibition at least equal to 70%.
condition not met

I'd appreciate it if you could say whether CCCCCCCCCCCCCCCCCC1=NCCCN1CCO has growth inhibition at least equal to 70%.
condition not met
